Target: Ubiquitin-activating enzyme e1, putative (Leishmania donovani (strain BPK282A1))
Sequence (whole entry): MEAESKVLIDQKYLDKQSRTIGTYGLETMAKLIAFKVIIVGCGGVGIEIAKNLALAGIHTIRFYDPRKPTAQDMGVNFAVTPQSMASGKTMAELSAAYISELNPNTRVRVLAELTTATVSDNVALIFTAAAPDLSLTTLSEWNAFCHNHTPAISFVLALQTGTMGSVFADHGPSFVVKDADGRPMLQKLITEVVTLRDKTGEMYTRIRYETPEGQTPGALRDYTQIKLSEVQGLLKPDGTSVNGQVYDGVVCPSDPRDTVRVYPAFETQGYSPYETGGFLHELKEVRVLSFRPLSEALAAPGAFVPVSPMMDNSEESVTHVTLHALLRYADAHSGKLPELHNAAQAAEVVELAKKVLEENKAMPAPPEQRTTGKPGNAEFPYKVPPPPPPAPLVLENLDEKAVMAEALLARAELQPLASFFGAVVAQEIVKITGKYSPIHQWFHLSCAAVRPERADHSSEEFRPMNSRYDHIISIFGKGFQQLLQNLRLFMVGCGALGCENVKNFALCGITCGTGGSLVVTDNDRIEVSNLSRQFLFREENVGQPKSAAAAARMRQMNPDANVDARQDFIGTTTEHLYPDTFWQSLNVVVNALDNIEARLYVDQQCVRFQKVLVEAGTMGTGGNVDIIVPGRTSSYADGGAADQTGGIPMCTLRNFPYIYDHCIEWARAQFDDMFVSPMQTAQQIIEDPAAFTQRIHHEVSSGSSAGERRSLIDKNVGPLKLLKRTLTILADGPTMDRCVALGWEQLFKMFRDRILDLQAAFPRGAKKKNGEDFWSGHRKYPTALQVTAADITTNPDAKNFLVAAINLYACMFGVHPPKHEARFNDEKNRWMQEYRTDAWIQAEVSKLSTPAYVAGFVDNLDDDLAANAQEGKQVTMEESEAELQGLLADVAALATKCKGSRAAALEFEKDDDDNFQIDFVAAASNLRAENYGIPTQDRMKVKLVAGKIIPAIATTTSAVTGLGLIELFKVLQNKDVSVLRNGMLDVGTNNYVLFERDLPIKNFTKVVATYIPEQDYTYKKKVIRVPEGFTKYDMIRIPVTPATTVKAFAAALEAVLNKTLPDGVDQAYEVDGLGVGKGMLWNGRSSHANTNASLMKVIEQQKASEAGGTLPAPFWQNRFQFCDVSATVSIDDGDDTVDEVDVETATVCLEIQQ
Experiment: Leishmania donovani Ubiquitin Activating Enzyme (LdE1)
Type: functional
Parameters: scale not given: direction of the effect not stated beside the values
Details: 30 µM
Results with a measured potency or affinity are listed apart.
Answer each item with its documented Percent Effect.
Note: state the figure and append the unit.

Name the reported Percent Effect value associated with the molecule Cc1cccc(-n2cc(C(=O)N3CCCC(n4cccn4)C3)nn2)c1 (configuration not stated)
23.4%

Name the reported Percent Effect value associated with the molecule `O=C1NCCN1C1CCN(CCc2cccs2)CC1`
18.2%

Name the reported Percent Effect value associated with the molecule `O=C(NCc1cnc2n1CCN(CC1CC1)CC2)C1CCC1`
13.5%

Name the reported Percent Effect value associated with the molecule `O=C(N1CCOCC1)[C@@]12CCO[C@@H]1CCN(Cc1ccccc1F)C2`
-4%

Name the reported Percent Effect value associated with the molecule COCCC(=O)N1CCC2(COCc3cnc(-c4ccccc4)nc32)C1 (configuration not stated)
2.67%

Name the reported Percent Effect value associated with the molecule `CCS(=O)(=O)Nc1ccc(C(=O)NCCCN2CCCC2)cc1`
13.2%

Name the reported Percent Effect value associated with the molecule `Cc1csc(N2CCCN(Cc3noc(C)n3)CC2)n1`
3.8%

Name the reported Percent Effect value associated with the molecule `CNS(=O)(=O)Cc1ccc(CNC(=O)Nc2cn[nH]c2)cc1`
20.2%

Name the reported Percent Effect value associated with the molecule `O=C(Nc1cnn(CCN2CCOCC2)c1)c1cc(F)ccc1F`
7.89%

Name the reported Percent Effect value associated with the molecule `c1coc(CN2C[C@H](OCC3CCOCC3)[C@H]3COC[C@H]32)c1`
8.11%

Name the reported Percent Effect value associated with the molecule N#Cc1ccc(F)c(CN2CCCC2Cn2cnc3ccccc32)c1 (configuration not stated)
-5.41%

Name the reported Percent Effect value associated with the molecule Cc1cc(C)n(C2CCCN(C(=O)c3cccc4[nH]ncc34)C2)n1 (configuration not stated)
-13.5%

Name the reported Percent Effect value associated with the molecule `c1cc(-c2cnccn2)cc(-c2ccn(CCN3CCCC3)n2)c1`
-21.6%

Name the reported Percent Effect value associated with the molecule COc1ccc(CN2CCCC(Nc3cccc(F)c3)C2)cc1O (configuration not stated)
0%

Name the reported Percent Effect value associated with the molecule `Cn1nccc1C1CCN(Cc2csc(-c3ncccn3)n2)CC1`
24.3%

Name the reported Percent Effect value associated with the molecule COC(C(=O)N1CCCN(Cc2cscn2)CC1)c1ccccc1 (configuration not stated)
21.1%

Name the reported Percent Effect value associated with the molecule CCC(C)N(C)CCNC(=O)NCc1cccc(-n2cncn2)c1 (configuration not stated)
5.41%

----------
Answer each item with its documented Percent Effect.
species: Homo sapiens; assay: To identify inhibition of the IFN signalling (Jak-Stat) pathway via expression of an eGFP reporter gene under the control of an IFN-stimulated response element (ISRE) containing MxA promoter.; assay type: functional; design: scale not given: direction of the effect not stated beside the values; settings: 30 µM
Hi! Could you send only the number? It should be in %, unit omitted.

Name the reported Percent Effect value associated with the compound `N#CCSCCCN1CCCN(C(=O)c2ccccc2)CC1`
14.4

Name the reported Percent Effect value associated with the compound `Cn1cc(C(=O)Nc2ccc3c(c2)CN(C(=O)c2ccco2)CC3)nn1`
0.998

Name the reported Percent Effect value associated with the compound `CCN(Cc1ccc2c(c1)OCO2)Cc1nc(C)no1`
18.6

Name the reported Percent Effect value associated with the compound `c1ccc(CN2CC[C@@H]3O[C@H](COCc4ccncc4)CC[C@@H]32)nc1`
-4.23

Name the reported Percent Effect value associated with the compound CN(C)C(=O)CC1CC2(CCNCC2)c2cc(F)ccc21 (stereo not given)
-0.894

Name the reported Percent Effect value associated with the compound CCn1ncc2c1C(COCC1CC1)CN(S(=O)(=O)N(C)C)C2 (stereo not given)
9.33

Name the reported Percent Effect value associated with the compound CCNC(=O)N1CCCCC1CCNS(C)(=O)=O (stereo not given)
6.93

Name the reported Percent Effect value associated with the compound CC(NC(=O)c1nc(=O)[nH][nH]1)c1ccc(OCC2CC2)c(F)c1 (stereo not given)
4.1

Name the reported Percent Effect value associated with the compound `CC(C)(O)C1CCN(C(=O)Nc2nc(-c3ccccc3)ns2)CC1`
55.5

Name the reported Percent Effect value associated with the compound c1ccc2sc(CN3CCCC3c3noc(C4CC4)n3)nc2c1 (stereo not given)
9.41

Name the reported Percent Effect value associated with the compound `COc1c(C(=O)NCc2cccnc2)nnn1Cc1ccc(C)cc1`
5.48

Name the reported Percent Effect value associated with the compound CN(C)C(C(=O)N1CCC(N2CCSCC2)CC1)c1ccccc1F (stereo not given)
-4.19

Name the reported Percent Effect value associated with the compound CC(=O)Nc1nc(C(=O)N2CCCC2c2noc(C)n2)cs1 (stereo not given)
22.6

Name the reported Percent Effect value associated with the compound NC(=O)COc1cccc(C(=O)N2CCCC(n3ccnc3)C2)c1 (stereo not given)
-2.06

Name the reported Percent Effect value associated with the compound `COC[C@]12COC[C@H]1CN(Cc1cc(OC)cc(OC)c1)C2`
-4.13

Name the reported Percent Effect value associated with the compound `O=C(c1ccco1)N1C[C@@H]2OCCN(CCN3CCCC3)[C@@H]2C1`
-16.1

Name the reported Percent Effect value associated with the compound `Cc1[nH]ccc1C(=O)N1CCC(c2nnc(Cn3ccnc3)n2C)CC1`
22.3

Name the reported Percent Effect value associated with the compound O=C(NCCCOCC1CCCO1)c1cccnc1N1CCCC1 (stereo not given)
-4.98

Name the reported Percent Effect value associated with the compound `Cn1cnc(S(=O)(=O)NCCCN2CCOCC2)c1Cl`
16.1

Name the reported Percent Effect value associated with the compound `Cn1c(Cn2ccnc2)nnc1C1CCN(Cc2cccnc2N)CC1`
-8.94

Name the reported Percent Effect value associated with the compound N#Cc1ccnc(N2CCN(CC(O)c3cccc(F)c3)CC2)c1 (stereo not given)
-1.26

Name the reported Percent Effect value associated with the compound CC(C)[C@H](NC(=O)NC1CCS(=O)(=O)C1)C(=O)NCc1cccnc1 (stereo not given in full)
-6.4

Name the reported Percent Effect value associated with the compound `Cc1csc(N2CCN(C(=O)CCc3ccccn3)CC2)n1`
6.58

Name the reported Percent Effect value associated with the compound `O=C(N1CCCC1)N1CCN(CC2CC2)c2ncccc2C1`
10.6

Name the reported Percent Effect value associated with the compound `Cn1ccc2c(C(=O)N3CCC(C(N)=O)CC3)cccc21`
7.15

Name the reported Percent Effect value associated with the compound CNS(=O)(=O)c1cccc(C(C)NCc2ccccc2)c1 (stereo not given)
-5.59

Name the reported Percent Effect value associated with the compound `CSc1ccsc1C(=O)N1CCN(CC(C)(C)O)CC1`
3.01

Name the reported Percent Effect value associated with the compound `COc1ccnc(N2CCN(C(=O)CCc3nccs3)CC2)n1`
14.1

Name the reported Percent Effect value associated with the compound `CO[C@H]1CN(C(=O)c2ccc3oc(C)cc3c2)CC[C@@]12CCCO2`
-10.3

Name the reported Percent Effect value associated with the compound Cc1cc(C)n(CCCNC(=O)C(C)NC(=O)c2ccccc2Cl)n1 (stereo not given)
-13.1

Name the reported Percent Effect value associated with the compound `CCc1ncncc1C(=O)N1CCN(Cc2c(C)noc2C)CC1`
-0.539

Name the reported Percent Effect value associated with the compound O=C(CN1CCCC(Cn2cncn2)C1)NCc1ccco1 (stereo not given)
6.12

Name the reported Percent Effect value associated with the compound Cn1ccc(C(=O)N2CCCC(Cc3cccc4ncccc34)C2)n1 (stereo not given)
49.9

Name the reported Percent Effect value associated with the compound `CCn1nc(C)c(CCn2ccnc2-c2cc3n(n2)CCCNC3)c1C`
12.4

Name the reported Percent Effect value associated with the compound CN(C)CCOCC1CN(C(=O)[C@H]2CCCO2)Cc2ccnn2C1 (stereo not given in full)
-2.46

Name the reported Percent Effect value associated with the compound NCC(c1ccccc1)N1CCc2sccc2C1 (stereo not given)
5.62

Name the reported Percent Effect value associated with the compound O=C(NC1CCCN(c2ncccn2)C1)c1ccoc1 (stereo not given)
8.15

Name the reported Percent Effect value associated with the compound `CC(=O)c1ccc(N2CCC(CO)(CCOc3ccccc3)CC2)nc1`
20.6

Name the reported Percent Effect value associated with the compound `Cc1ncsc1CN1C[C@@H](OCC2CC2)[C@H]2OCCC[C@H]21`
-4.12

Name the reported Percent Effect value associated with the compound `Cc1ncsc1CN1CC[C@H]2C(=O)N(c3ccccc3)CCO[C@H]2C1`
14.6
